B1: Twister Ribozyme (parent)
chain: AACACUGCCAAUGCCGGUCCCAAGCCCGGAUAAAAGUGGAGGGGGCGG

# Variants of: B1
# assay.remarks: self-cleavage, relative activity (ratio to wild type); higher = more cleavage; co-transcriptional
outcome.measure: self-cleavage

{"sequence": "AACACUGCCAAUGCGGGUCCCAAGCCCGGAUAAAAGUGGGGGGGGCGG [C15G A40G]", "outcome.measure": "self-cleavage", "number": 0.114}
{"sequence": "AACACUGCCAAUGCCGGUCCCAAGCCCGGAUAAUUGUGGAGGGGGCGG [A34U A35U]", "outcome.measure": "self-cleavage", "number": 0.841}
{"sequence": "AACACUGCCAAUGCCUGUCCCAAUCCCGGAUAAAAGUGGAGGGGGCGG [G16U G24U]", "outcome.measure": "self-cleavage", "number": 0.0815}
{"sequence": "AACACUGCCAAUGCCGGUCCCAAGCCCGGAUAAAAUUGGGGGGGGCGG [G36U A40G]", "outcome.measure": "self-cleavage", "number": 0.125}
{"sequence": "AAAACUGCCAAUGCCGGUCCCAAGUCCGGAUAAAAGUGGAGGGGGCGG [C3A C25U]", "outcome.measure": "self-cleavage", "number": 0.16}
{"sequence": "AACACUGCCAAUGCCGGUCCCAAGCCCGGAUUAAAGUGAAGGGGGCGG [A32U G39A]", "outcome.measure": "self-cleavage", "number": 0.596}
{"sequence": "AACACUGCCAAUGUCGGUCCCAAGCCCGGAUAAAAGUGGAGGCGGCGG [C14U G43C]", "outcome.measure": "self-cleavage", "number": 0.227}
{"sequence": "AACACUGCCAAUGACGGUCCCAAGCCCGGAUAAAAGUCGAGGGGGCGG [C14A G38C]", "outcome.measure": "self-cleavage", "number": 0.861}
{"sequence": "AACACUGCGAAUGCCGGUCCCAAGCCCGGAUUAAAGUGGAGGGGGCGG [C9G A32U]", "outcome.measure": "self-cleavage", "number": 0.517}
{"sequence": "AACACUGCCAAUGCCGGUCCCAAGCCCGGAUACAAGUGUAGGGGGCGG [A33C G39U]", "outcome.measure": "self-cleavage", "number": 0.21}
{"sequence": "AACACUGCCAAUGCCGGACCCAAGCCCGGAUAAAAGUGGAGGGGCCGG [U18A G45C]", "outcome.measure": "self-cleavage", "number": 0.155}
{"sequence": "AACGCUGCAAAUGCCGGUCCCAAGCCCGGAUAAAAGUGGAGGGGGCGG [A4G C9A]", "outcome.measure": "self-cleavage", "number": 0.698}
{"sequence": "AACACUGCCAAUGCCGGUCCCAAGCCCGUAUAAAAGUGGAGGGGGCGC [G29U G48C]", "outcome.measure": "self-cleavage", "number": 1.11}
{"sequence": "AACACUGCCAAUGCCGGUCCCAAGCCCGGAGUAAAGUGGAGGGGGCGG [U31G A32U]", "outcome.measure": "self-cleavage", "number": 0.765}
{"sequence": "AACACUGCCAAUGCCGGUCCCAAGCCCGGAUAAAAGUGGUUGGGGCGG [A40U G41U]", "outcome.measure": "self-cleavage", "number": 0.145}
{"sequence": "AACACUGCCAAUGCCGGUCCCAAGCCCGGAUAAAAGUCGAGGGGGGGG [G38C C46G]", "outcome.measure": "self-cleavage", "number": 0.801}
{"sequence": "AACACUGCCAAUGCCGGCCCCUAGCCCGGAUAAAAGUGGAGGGGGCGG [U18C A22U]", "outcome.measure": "self-cleavage", "number": 0.243}
{"sequence": "AACACUGCCAAUGCCGGUCACAAGCCCGGAUAAAGGUGGAGGGGGCGG [C20A A35G]", "outcome.measure": "self-cleavage", "number": 0.0546}
